# STUDY TARGET: Histamine H2 receptor (Homo sapiens, UniProt P25021); further: assay procedure not described here
# Sequence (P25021 whole entry): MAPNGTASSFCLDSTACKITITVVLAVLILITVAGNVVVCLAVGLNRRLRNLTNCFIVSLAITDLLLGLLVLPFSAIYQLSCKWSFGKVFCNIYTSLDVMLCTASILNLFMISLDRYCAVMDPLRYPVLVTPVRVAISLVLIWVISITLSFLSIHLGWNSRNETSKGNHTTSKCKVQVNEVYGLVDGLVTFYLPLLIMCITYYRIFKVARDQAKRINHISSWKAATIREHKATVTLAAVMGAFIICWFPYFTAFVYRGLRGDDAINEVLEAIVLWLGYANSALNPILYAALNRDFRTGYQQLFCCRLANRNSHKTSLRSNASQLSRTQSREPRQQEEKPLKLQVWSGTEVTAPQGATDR
# Type: functional, cell-based
REPORTED METRIC: AC50

Give AC50 for each of the items listed below.
1. Cc1cc2c(OCC(CNC(C)(C)C)OC(=O)c3ccccc3)cccc2[nH]1 (stereo unspecified)
2. CN(C)[C@@H]1C(O)=C(C(N)=O)C(=O)[C@@]2(O)C(O)=C3C(=O)c4c(O)ccc(Cl)c4[C@@H](O)[C@H]3C[C@@H]12
3. NC[C@H]1O[C@H](O[C@H]2[C@H](O)[C@@H](O[C@H]3O[C@H](CO)[C@@H](O)[C@H](N)[C@H]3O)[C@H](N)C[C@@H]2N)[C@H](O)[C@@H](O)[C@@H]1O
4. CN(C)CCCN1c2ccccc2CCc2ccc(Cl)cc21
5. C[N+](C)(C)CCOC(N)=O
6. CCCCCOC(=O)Nc1nc(=O)n([C@@H]2O[C@H](C)[C@@H](O)[C@H]2O)cc1F

Data returned:
> 30 µM
> 10 µM
> 30 µM
> 30 µM
> 30 µM
> 30 µM
